Reference for the values: paper PMC3677030

# assay target: EphA2 receptor (Mus musculus, UniProt Q03145)
# experiment notes: Surface plasmon resonance
# Format: binding
# conditions: affinity constant (KD) from kinetic analysis, SPR, koff/kon
property: Kd (µM)
Kindly provide the numeric value in µM only, without the unit symbol.

Please give the measured Kd for this molecule: C[C@H](CCC(=O)O)[C@H]1CC[C@H]2[C@@H]3CC[C@@H]4CCCC[C@]4(C)[C@H]3CC[C@]12C
8.45

* * *

Reported Ki values are given for each entry in this list.
# assay target: EphA2-ephrin-A1 interaction (EphA2-Fc ectodomain) (Mus musculus)
# Sequence (Q03145 26-538 limits assumed): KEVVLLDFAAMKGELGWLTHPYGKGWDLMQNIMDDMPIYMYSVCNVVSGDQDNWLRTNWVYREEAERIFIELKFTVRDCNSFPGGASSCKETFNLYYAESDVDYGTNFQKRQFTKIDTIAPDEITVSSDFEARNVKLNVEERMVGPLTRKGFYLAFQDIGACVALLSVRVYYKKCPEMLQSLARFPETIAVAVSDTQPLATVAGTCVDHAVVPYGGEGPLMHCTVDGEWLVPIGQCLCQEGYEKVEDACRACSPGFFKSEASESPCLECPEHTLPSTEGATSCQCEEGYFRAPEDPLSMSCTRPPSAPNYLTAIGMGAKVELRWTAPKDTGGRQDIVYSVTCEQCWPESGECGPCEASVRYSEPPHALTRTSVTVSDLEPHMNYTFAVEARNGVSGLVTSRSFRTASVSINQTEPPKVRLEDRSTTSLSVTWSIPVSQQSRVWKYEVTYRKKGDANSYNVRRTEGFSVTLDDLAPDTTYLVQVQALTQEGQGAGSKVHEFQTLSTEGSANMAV
# Format: binding
Kindly provide the numeric value in µM only, without the unit symbol.

                                  structure  numeric_result
0  C[C@H](CCC(=O)O)[C@H]1CC[C@H]2[C@@H]3CC[C@@H]4CCCC[C@]4(C)[C@H]3CC[C@]12C             5.1

Please give the measured Ki for this compound: C[C@H](CCCO)[C@H]1CC[C@H]2[C@@H]3CC[C@@H]4C[C@H](O)CC[C@]4(C)[C@H]3CC[C@]12C
186
